Entries and their koff values follow.
molecular target: T1, Recombinant human CD4 (R&D Systems, Cat. 10327-CD) (human, UniProt P01730 26-390, limits assumed); assay: BLI (Octet Red384), purified antibody on anti-mouse Fc sensors, human CD4 100/50/25 nM, global 1:1 fit;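 also: antibodies loaded at 10 µg/mL, curves fitted across association and dissociation phases, with an unrelated mouse-derived antibody serving as internal reference control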
T1 construct: Bought protein; also called huCD4
Note: unit s⁻¹ is implicit; provide only the numeric part.

[
  {
    "binder": "75110_07J02A (antibody, V domains shown, Tested as antibody purified from AlivaMab Mouse Kappa hybridoma (human V regions, kappa light chain, mouse Fc captured by anti-mouse Fc sensors); also called 75110_07102A) VH: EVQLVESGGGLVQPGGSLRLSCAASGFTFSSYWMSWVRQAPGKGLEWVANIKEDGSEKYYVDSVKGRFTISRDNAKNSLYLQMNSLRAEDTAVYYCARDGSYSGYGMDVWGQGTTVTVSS VL: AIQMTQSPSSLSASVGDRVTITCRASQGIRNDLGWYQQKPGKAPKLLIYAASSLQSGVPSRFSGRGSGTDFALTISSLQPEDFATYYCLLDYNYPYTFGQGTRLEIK",
    "reported.result": 0.0022
  },
  {
    "binder": "75110_12H19A (antibody, V domains shown, Tested as antibody purified from AlivaMab Mouse Kappa hybridoma (human V regions, kappa light chain, mouse Fc captured by anti-mouse Fc sensors)) VH: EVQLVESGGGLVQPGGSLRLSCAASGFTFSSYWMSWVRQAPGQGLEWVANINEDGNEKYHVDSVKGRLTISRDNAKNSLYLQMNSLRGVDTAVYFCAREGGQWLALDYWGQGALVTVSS VL: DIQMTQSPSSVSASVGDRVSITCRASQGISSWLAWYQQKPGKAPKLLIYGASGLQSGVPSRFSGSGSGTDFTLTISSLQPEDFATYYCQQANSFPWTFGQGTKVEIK",
    "reported.result": 0.0022
  },
  {
    "binder": "75110_08K12A (antibody, V domains shown, Tested as antibody purified from AlivaMab Mouse Kappa hybridoma (human V regions, kappa light chain, mouse Fc captured by anti-mouse Fc sensors)) VH: EVQLVESGGGLVQPGGSLRLSCAASGFTFSSYDMHWVRQATGKGLEWVSTIGTAGDTYYPGSVKGRFTISRENAENSLYLQMNSLRAGDTALYYCARGDYYYYGMDVWGQGTTVTVSS VL: EIVLTQSPGTLSLSPGERATLSCRASQSVSSTYLAWYQQKPGQAPRLLIYGASNRATGIPDRFSGSGSGTDFTLTISRLEPEDFAVYYCQQFGTSPFTFGPGTKVDIK",
    "reported.result": 0.00022
  },
  {
    "binder": "75110_08G08A (antibody, V domains shown, Tested as antibody purified from AlivaMab Mouse Kappa hybridoma (human V regions, kappa light chain, mouse Fc captured by anti-mouse Fc sensors)) VH: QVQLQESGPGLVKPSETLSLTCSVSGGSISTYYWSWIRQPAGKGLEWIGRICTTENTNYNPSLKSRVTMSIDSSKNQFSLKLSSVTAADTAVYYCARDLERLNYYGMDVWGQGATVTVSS VL: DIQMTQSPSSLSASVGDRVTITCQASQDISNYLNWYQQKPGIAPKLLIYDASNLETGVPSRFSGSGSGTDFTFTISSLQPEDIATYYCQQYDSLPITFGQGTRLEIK",
    "reported.result": 0.0035
  }
]

Please give the documented koff of 75110_12C19A (antibody, V domains shown, Tested as antibody purified from AlivaMab Mouse Kappa hybridoma (human V regions, kappa light chain, mouse Fc captured by anti-mouse Fc sensors)) VH: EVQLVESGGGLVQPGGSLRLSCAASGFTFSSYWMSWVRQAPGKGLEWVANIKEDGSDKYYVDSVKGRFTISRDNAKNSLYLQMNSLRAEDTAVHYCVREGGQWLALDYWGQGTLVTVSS VL: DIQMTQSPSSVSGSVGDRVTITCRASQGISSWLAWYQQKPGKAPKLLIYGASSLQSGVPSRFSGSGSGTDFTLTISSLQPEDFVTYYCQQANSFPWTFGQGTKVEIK
0.0015

Dear colleague, please send me the reported koff for 75110_06G04A (antibody, V domains shown, Tested as antibody purified from AlivaMab Mouse Kappa hybridoma (human V regions, kappa light chain, mouse Fc captured by anti-mouse Fc sensors)) VH: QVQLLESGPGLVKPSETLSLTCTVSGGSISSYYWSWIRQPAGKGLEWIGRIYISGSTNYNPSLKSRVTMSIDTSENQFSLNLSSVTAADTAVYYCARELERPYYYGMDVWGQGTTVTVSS VL: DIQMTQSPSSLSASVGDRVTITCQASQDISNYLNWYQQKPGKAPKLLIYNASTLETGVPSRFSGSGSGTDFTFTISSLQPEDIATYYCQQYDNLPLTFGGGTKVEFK when you can.
0.0015

Reference source for all entries: patent US20220112288A1
